The measurements presented in this section are drawn from the RNAGym collection of RNA variant scans (doi:10.1126/science.aae0568).

B1: tRNA (parent)
chain: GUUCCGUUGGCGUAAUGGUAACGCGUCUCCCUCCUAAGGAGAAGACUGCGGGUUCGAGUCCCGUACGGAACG

- Variants of: B1
- protocol: yeast fitness relative to wild type (ratio to wild type); higher = fitter; tRNA-Arg(CCU), competitive growth, 37 C, YPD
This sample holds only a part of the variants without activity.
test_readout: yeast fitness

1) GAUCCGUUGGCGUAAUGGUAACGCGUCUCCCUCCUAAGGAGAAGACUCCGGGUUCGAGUCCCGUACGGAACG [U2A G48C]    0.92
2) GUUCCGUUGGGGUAUUGGUAACGCGUCUCCCUCCUAAGGAGAAGACUGCGGGUUCGAUUCCCGUAAGGACCG [C11G A15U G58U C66A A70C]    ≤ 0.5
3) GUUCCGUUGGCGUAAUGGUUACGCGCCUCCCUCCUAAGGAGAAGACUGCGGGUUCGAGUCCGGUACGGAACG [A20U U26C C62G]    ≤ 0.5
4) GUUCUGUUGGCGUGAUGGUAACGCGUCUCCCUCCUAAGGAGAAGACUGCCGGUUUGGGUCCCGUACGGAACG [C5U A14G G50C C55U A57G]    0.675
5) GUUCCGUUGGCGUAAUGGUAACGCGUCUACUUCCUAAGGAGAAGACUGCGGGUUCGAGUCCCGUACGGAACG [C29A C31U]    0.713
6) GUUCCGUUGGCGUAAUGGUAACGCGUCUCCCUCCUAAGGAGAAGACUGCGGGUUCGAAUCCCGUACGGUACG [G58A A69U]    0.986
7) GUUCCGUUGGCGUAAUGGUAAGGCGUCUCCCUCCCAAGGAGAAGACUGCGGGUUCGCGUCCCGUACGGAACG [C22G U35C A57C]    0.61
8) GUUACGUUGGCGUAAUGGUAACGCGUCUCCCUCCUAAGGAGAAGUCUGCGGGUUUGAGUCCCGUACGGACCG [C4A A45U C55U A70C]    ≤ 0.5
9) GUUCCGUUGACGUAAAGGUAACGCGUCUCCAUCCUAAGGAGAAGACUGCGAGUUCGAGUCCCGUACGGAACG [G10A U16A C31A G51A]    0.584
10) GUUCCGUUGGCGUACUGGUAACGCGUCUCCCUCCCAAGGAGAAGACCGCGGGUUCGAGUCCCGUACGGAACG [A15C U35C U47C]    ≤ 0.5
11) GUUCCGUUGGCGUGAUGGUAACGCGUCUCACUCAUAAGGAGACGACUGCGGGUUCGAGUGCAGUACGGAACG [A14G C30A C34A A43C C60G C62A]    ≤ 0.5
12) GUUCCGUUGGUGUAAUGGUAACGCGUCUCCCUCCUAAGGAGAAGACUGCGGAUUCGAGUACCGUACGGAACG [C11U G52A C60A]    0.593
13) GUUCCGUUGGCGUAAAGGUAAUGCGCCUCCCUCCUAAGGAGAAGACUGCGGGUGCGAGUCCCGUAAGGAACG [U16A C22U U26C U54G C66A]    0.58
14) GUUCCGUUGGCGUAAUGGUAACGCGUCUCCCUCCUAAGGAGGACACUGCGGGUUCGAGUGCCGUACGGAACG [A42G G44C C60G]    0.606
15) GUUCCGUUGGCGUAGUGGUAACGCGUCUCCCUCCAAAGGAGAAGACUACGGGUUCGGGUCCGGUACGGAACG [A15G U35A G48A A57G C62G]    ≤ 0.5
16) GUUCUGUUGGCGUAGUGGUAACGCGUCUCCCUCCUAAGGAGUAGACUGCGGGUUCGAGUCCCGUACGGAACG [C5U A15G A42U]    0.703
17) GUUCCGUUGGCGUAAUGGUAACGCGUCUCCGUCCUAAGGAAAAGACUGCGGGCUCGAGUCCCGUACGGAACG [C31G G41A U53C]    0.52
18) GUUCCGUUGGCGUACUGGUAACGCGUUACCCUCCUAAGGUGAAGACUGCGGGUUCGAGUCCCGUACGGAACG [A15C C27U U28A A40U]    ≤ 0.5
19) GUUCCGUUGGCGAAAUGGUAACGCGUCUCCCCCCUAAGGAGAAGACUGCGGGUUCGAGUCCCAUACGGAACG [U13A U32C G63A]    0.572
20) GUUCCGUUGGCGUAAUGGUAACGCGUCUCCCUCCUAAGGAAAAGACUGCGGGUUCGAGUGCCGUACGGAACG [G41A C60G]    0.646
21) GUGCCGUUGGCGUAAUGGUCACGCGUCUCCCUCCUAAGGAGAACACUGCGGGUUCGAGUCUCGUACGGAACG [U3G A20C G44C C61U]    0.606
22) GUUUCGUUGGCGUAAUGGUAACGCGUCUCACUCCUAAGGAGAAGACUGCGGGUUCGAGUCACGUACGGAUCG [C4U C30A C61A A70U]    0.536
23) GUUCCGUUGGCGUAAUGGUAACGCGGCUCCCUGCAAAGGAGAAGACUGCGGGUUUGAGUCCCGUCCGGAACG [U26G C33G U35A C55U A65C]    ≤ 0.5
24) GUUCCGUUGGCGUAAUGAUAAGGGGUCUCCCUCCUAAGGAGAAGACUGCGGGUUCGAGUCCCGUACGGAACG [G18A C22G C24G]    ≤ 0.5
25) GUUCUGUUGGAGUAAUGGUAACGCGUCUCCCUCCUAAGGAGAAGACUGCGGGUUCGAGUCCCGUACGGAACG [C5U C11A]    0.586
26) GUUCUGUUGGCGUAAUGGUAACCCGUCUCCCUCCUAAGGAGAAGACUGCGGGUUAGAGUCCCGUACGGAACG [C5U G23C C55A]    0.566
27) GUUCCGCUGGCGUAAUGGUAACGCGUCUCCCUCUUAAGGAGAAGACUGCGGCUUCGAGUCCCGUACGGAACG [U7C C34U G52C]    0.579
28) GUUCCGUGGGCGUAAUAGUAACGCGUCUCCAUCCUAAGGAGAAGACUGCGGGUUCGAGUCCCGUAUGGAACG [U8G G17A C31A C66U]    ≤ 0.5
29) GUUCCGUUGGCGUAAUGGUAACGCGUCUACUUCCUAUGGAGAAGACUGCGGGUUCGAGUCCCGUGCGGAACG [C29A C31U A37U A65G]    ≤ 0.5
30) GUUUCGUUGGCGUAAUGGUAAUGCGUCUCCCUUCUAAGGAGAAGACUGCGGGUUCGAGUCCCGUACGGAACG [C4U C22U C33U]    0.565
31) GUUCGGUUGGCGUAAUGGUAACGCGACUCCCUCCUCAGGAGAAGACUGCGGGUUCGAGUCUCGUACGGAACG [C5G U26A A36C C61U]    ≤ 0.5
32) GUUUCGUUGGCGUAAUGGUAACGCGUCUCCCUCCUAGGCAGAAGACUGCGGGUUCGAGUCUCGUACGGAACG [C4U A37G G39C C61U]    ≤ 0.5
33) GUUCCGUUGGCACAAUGGUAACGCGUCUCCCUCCUAAGGAGAAGACUGUGGGUUCGAGUCCCGUACGGAACG [G12A U13C C49U]    0.674
34) GUUCUAUUGGCGUAAUGGUAACGCGUCUCCCUCCUAAGGAGAAGACUGCGGGUUCGAGUCCCGUUUGGAGCG [C5U G6A A65U C66U A70G]    ≤ 0.5
35) GUUCCGUUGGCGUAAUGGUAAUGAGUCUCCCUCCUAAGGAGGAGACUGCGGGUUCGAGUCCCGUACGGAACG [C22U C24A A42G]    ≤ 0.5
36) GUUCCGUUGGAGUAAUGGUAACGCGUUUCACUCCUAAGGAGACGACUGCGGGUUCGAGUUCCGUACGGAACG [C11A C27U C30A A43C C60U]    ≤ 0.5
37) GUUCCGUUGGCGUAAUGGUAACGCGUAUCCCUCCUAAGAAGCAGACUCCGGGUUCGAGUUCCGUACGGAACG [C27A G39A A42C G48C C60U]    ≤ 0.5
38) GUUCCGUUAGCGUAAUGGUAACGCGUCUCCCUCCUAAGGAGAAGAAUGCGGGUUUGAGUCCCGUACGGAACG [G9A C46A C55U]    0.543
39) GUUCCGUUGGCGUAAUGGUAACGAGUCUCUCUACUAAGGACUAGACUGCGGGUUCGAGUCCCGUACGGAACG [C24A C30U C33A G41C A42U]    ≤ 0.5
40) GUUCCGUUGGGGUAAUGGUAACGCGUCUCCCUCCUAAGGCGAAGACUGCGGGUUCGAGUCCCGUACGGAACG [C11G A40C]    0.6
41) GUUCCGUCGGCGUAAUGGUAACGCGUGUACCUCCUAAGGAGAAGACUGCGGGUUCGAGUCCCGUACGGAACG [U8C C27G C29A]    ≤ 0.5
42) GUUCCGUUGGCGUAAUGGUAACGCGUCUCCCUUCUAAGGAGAUGACUGGCGGUUCGAGUCUCGUACGGAACG [C33U A43U C49G G50C C61U]    ≤ 0.5
43) GUUCCGUUGGCGUAAAGGUAAUGCGUCUCCCUCCUAAGGAGAAGACUGCGGGUUAGAGUCCCGUACGGAACG [U16A C22U C55A]    0.808
44) GUACCGUUGGCGUAAUGGUAAGGUGUCUCCCUACUAAGGAGAAGACUGCGGGUUCGAAUCCCGUACGGAACG [U3A C22G C24U C33A G58A]    ≤ 0.5
45) GUUCCGUUGGCGCAAUAGUAACGCGUCUCCCUCCUAAGGAGAAGACCGCGGGUUCGAGUCCCGUGCGGAACG [U13C G17A U47C A65G]    ≤ 0.5
46) GUUCCGUUGGCGUAAUGGUAAGGGGUCUCCCUCCUAAGGAGAAGCCUGCGGGUUCGAGUCCCCUACGGAACG [C22G C24G A45C G63C]    0.563
